Where do the numbers come from? From ChEMBL document CHEMBL1158537.

- Tested on: Staphylococcus epidermidis
- Assay name: Antibacterial activity against Staphylococcus epidermidis […] after 24 hrs by macrobroth dilution method
- Type: functional
Label Met when MIC < 20 µg/mL; otherwise Not met.

Consider the following illustrative entries.
Compound	Group label
NCC[C@H](O)C(=O)N[C@@H]1C[C@H](N)[C@@H](O[C@H]2O[C@H](CN)[C@@H](O)[C@H](O)[C@H]2O)[C@H](O)[C@H]1O[C@H]1O[C@H](CO)[C@@H](O)[C@H](N)[C@H]1O [AMIKACIN]	Met
NC[C@@H]1O[C@H](O[C@H]2[C@@H](OC(=O)Nc3ccc(Cl)cc3)[C@H](O[C@@H]3[C@@H](OC(=O)Nc4ccc(Cl)cc4)[C@H](N)C[C@H](N)[C@H]3O[C@H]3O[C@H](CN)[C@@H](OC(=O)Nc4ccc(Cl)cc4)[C@H](OC(=O)Nc4ccc(Cl)cc4)[C@H]3N)O[C@@H]2COC(=O)Nc2ccc(Cl)cc2)[C@H](N)[C@@H](OC(=O)Nc2ccc(Cl)cc2)[C@@H]1OC(=O)Nc1ccc(Cl)cc1.O=C(O)C(F)(F)F	Met
NC[C@H]1O[C@H](O[C@H]2[C@H](OC(=O)Nc3ccccc3)[C@@H](OC(=O)Nc3ccccc3)[C@H](N)C[C@@H]2N)[C@H](N)[C@@H](OC(=O)Nc2ccccc2)[C@@H]1OC(=O)Nc1ccccc1.O=C(O)C(F)(F)F	Met
NC[C@H]1OC(O[C@H]2[C@H](OCc3ccc(Cl)cc3)[C@@H](O[C@H]3O[C@H](COCc4ccc(Cl)cc4)[C@@H](OCc4ccc(Cl)cc4)[C@H](N)[C@H]3OCc3ccc(Cl)cc3)[C@H](N)C[C@@H]2N)[C@H](OCc2ccc(Cl)cc2)[C@@H](OCc2ccc(Cl)cc2)[C@@H]1OCc1ccc(Cl)cc1.O=C(O)C(F)(F)F (some centres undefined)	Not met

Q: MIC under 20 µg/mL? Item: "NC[C@@H]1O[C@H](O[C@H]2[C@@H](OCc3ccccc3)[C@H](O[C@@H]3[C@@H](OCc4ccccc4)[C@H](N)C[C@H](N)[C@H]3O[C@H]3O[C@H](CN)[C@@H](OCc4ccccc4)[C@H](OCc4ccccc4)[C@H]3N)O[C@@H]2COCc2ccccc2)[C@H](N)[C@@H](OCc2ccccc2)[C@@H]1OCc1ccccc1.O=C(O)C(F)(F)F"
Ans: Met

Q: MIC under 20 µg/mL? Item: "CC(C)(C)c1ccc(COC[C@H]2O[C@@H](O[C@@H]3[C@@H](OCc4ccc(C(C)(C)C)cc4)[C@H](N)C[C@H](N)[C@H]3O[C@H]3O[C@H](CN)[C@@H](OCc4ccc(C(C)(C)C)cc4)[C@H](OCc4ccc(C(C)(C)C)cc4)[C@H]3N)[C@H](OCc3ccc(C(C)(C)C)cc3)[C@@H]2O[C@H]2O[C@@H](CN)[C@@H](OCc3ccc(C(C)(C)C)cc3)[C@H](OCc3ccc(C(C)(C)C)cc3)[C@H]2N)cc1.O=C(O)C(F)(F)F"
Ans: Not met

Q: MIC under 20 µg/mL? Item: "CN(C)c1ccc(NC(=O)OC[C@H]2O[C@H](O[C@@H]3[C@@H](OC(=O)Nc4ccc(N(C)C)cc4)[C@H](O[C@H]4O[C@H](CN)[C@@H](OC(=O)Nc5ccc(N(C)C)cc5)[C@H](OC(=O)Nc5ccc(N(C)C)cc5)[C@H]4OC(=O)Nc4ccc(N(C)C)cc4)[C@@H](N)C[C@H]3N)[C@H](OC(=O)Nc3ccc(N(C)C)cc3)[C@@H](N)[C@@H]2OC(=O)Nc2ccc(N(C)C)cc2)cc1.O=C(O)C(F)(F)F"
Ans: Met

Q: MIC under 20 µg/mL? Item: "COC[C@H]1O[C@@H](O[C@@H]2[C@@H](OC)[C@H](N)C[C@H](N)[C@H]2O[C@H]2O[C@H](CN)[C@@H](OC)[C@H](OC)[C@H]2N)[C@H](OC)[C@@H]1O[C@H]1O[C@@H](CN)[C@@H](OC)[C@H](OC)[C@H]1N.O=C(O)C(F)(F)F"
Ans: Not met

Q: MIC under 20 µg/mL? Item: NC[C@@H]1O[C@H](O[C@H]2[C@@H](O)[C@H](O[C@@H]3[C@@H](O)[C@H](N)C[C@H](N)[C@H]3O[C@H]3O[C@H](CN)[C@@H](O)[C@H](O)[C@H]3N)O[C@@H]2CO)[C@H](N)[C@@H](O)[C@@H]1O [FRAMYCETIN]
Ans: Met
